- RUN_DESCRIPTION: Human microsome stability assay
- Type: in vitro ADME
- CONDITION_DETAILS: human liver microsomes, 1 μM test compound, 0.5 mg/mL microsomal protein, 37° C., pH 7.4, 0-30 minutes
Entries and their Clearance of Human microsome
Just the number in mL/min/kg, nothing appended.

1. Cc1cc(OCCO[C@H]2C[C@@H](C(=O)O)C2)c(-c2cc(=O)c3cccc(Cl)c3o2)cc1C(F)F: 6.15
2. O=c1cc(-c2ccccc2O[C@H]2C[C@H](C(=O)O)C2)oc2c(Br)cccc12: 6.15
3. COc1cc(-c2cc(=O)c3cccc(Cl)c3o2)c(OCCC(=O)O)cc1Cl: 6.15
4. Cc1ccc(-c2cc(=O)c3cccc(Cl)c3o2)c(OCCO[C@H]2C[C@@H](C(=O)O)C2)c1: 6.15
5. COc1cc(-c2cc(=O)c3cccc(Cl)c3o2)c(OCCC(=O)O)cc1C(F)(F)F: 6.15

Lab note: measured Clearance of Human microsome of "Cc1cc(Br)c(OCCC(=O)O)c(-c2cc(=O)c3cccc(Cl)c3o2)c1" was 6.15

For record "O=C(O)CCOc1cc(C(F)(F)F)ccc1-c1cc(=O)c2cccc(Cl)c2o1" the listed Clearance of Human microsome is 10.0

Clearance of Human microsome reading for "CS(=O)(=O)NC(=O)[C@H]1C[C@@H](OCCOc2cc(Br)ccc2-c2cc(=O)c3cccc(Cl)c3o2)C1" : 7.32

---

- RUN_DESCRIPTION: Human microsome stability assay
- Type: in vitro ADME
- CONDITION_DETAILS: human liver microsomes, 1 μM test compound, 0.5 mg/mL microsomal protein, 37° C., pH 7.4, 0-30 minutes
- Experimental: The human microsomal stability assay is used for early assessment of metabolic stability of a test compound in human liver microsomes. Human liver microsomes (Cat. NO.: 452117, Corning, USA; Cat. NO.: H2610, Xenotech, USA) were preincubated with test compound for 10 minutes at 37° C. in 100 mM potassium phosphate buffer, pH 7.4. […] Following precipitation and centrifugation, the amount of compound remaining in the samples was determined by LC-MS/MS. […]
READOUT_LABEL: Clearance of Human microsome (mL/min/kg)
Express your answer in mL/min/kg, writing the number without its unit.

1) Cc1cc(-c2cc(=O)c3cccc(Cl)c3o2)c(OCC(=O)N2CC[C@H](O)C2)cc1Br: 7.09

Clearance of Human microsome measured on "O=C(O)COc1cc(C(F)(F)F)ccc1-c1cc(=O)c2cccc(Cl)c2o1" = 6.15

Please fill in: Clearance of Human microsome reported for "COc1cc(-c2cc(=O)c3cccc(Cl)c3o2)c(O[C@H]2C[C@@H](C(=O)NS(C)(=O)=O)C2)cc1Br" = 6.15

get_value(item= "Cc1cc(-c2cc(=O)c3cccc(Cl)c3o2)c(OCCC(=O)O)cc1OC(F)(F)F" , readout=Clearance of Human microsome) returns 9.98

GET /value?item= "O=c1cc(-c2ccccc2OC[C@H]2C[C@@H](C(=O)O)C2)oc2c(Cl)cccc12" &field=Clearance of Human microsome returns 6.15

Sample "CCOc1ccc(OCCO[C@H]2C[C@H](C(=O)O)C2)c(-c2cc(=O)c3cccc(Cl)c3o2)c1" ; Clearance of Human microsome observed: 7.85

// Clearance of Human microsome lookup, molecule = "O=C(O)[C@@H]1C[C@H](Oc2cc(C(F)(F)F)ccc2-c2cc(=O)c3cccc(Cl)c3o2)CN1S(=O)(=O)c1ccccc1" , result: 6.15

---

The reader will find reported Clearance of Human microsome values listed item by item below.
- RUN_DESCRIPTION: Human microsome stability assay
- Format: in vitro ADME
- CONDITION_DETAILS: human liver microsomes, 1 μM test compound, 0.5 mg/mL microsomal protein, 37° C., pH 7.4, 0-30 minutes
Write the answer as a number in mL/min/kg, unit excluded.

Lab note: "COc1c(-c2ccc(Br)cc2OCCO[C@H]2C[C@@H](C(=O)O)C2)oc2c(Cl)cccc2c1=O" gave Clearance of Human microsome of 6.15

Sample "O=c1cc(-c2cc(F)ccc2OCCO[C@H]2C[C@H](C(=O)O)C2)oc2c(Cl)cccc12" ; Clearance of Human microsome observed: 6.15

Briefly, Clearance of Human microsome measured for "COc1cc(OCCO[C@H]2C[C@@H](C(=O)O)C2)c(-c2cc(=O)c3c(C(F)(F)F)ccc(Cl)c3o2)cc1OC" : 6.15

---

- Test system: HBsAg in HBV-infected PHH
- RUN_DESCRIPTION: Cryopreserved primary human hepatocytes (PHH) HBV infection assay, extracellular HBsAg (CLIA)
- Type: cell-based
- CONDITION_DETAILS: Hepatitis B virus, Hepatocyte, 216 h, read-out: HBsAg IC50, Cryopreserved PHH infected with HBV, 9 days post-compound treatment, extracellular HBsAg
The compounds listed here are annotated with their pIC50.
The read-out pIC50 is expressed as -log10 of concentration in moles per litre.

Illustrative cases are given below, each with its answer.
1. COc1cc(-c2cc(=O)c3cccc(Cl)c3o2)c(OCCCOCC(=O)O)cc1Br: 5.03
2. Cc1cc(-c2cc(=O)c3cccc(Cl)c3o2)c(O[C@H]2C[C@@H](C(=O)O)C2)cc1Br: 5.14
3. CCCOc1cc(OCCO[C@H]2C[C@@H](C(=O)O)C2)c(-c2cc(=O)c3cccc(Cl)c3o2)cc1OC: 5.03

# context switch: different compound, same pIC50
Item "O=c1cc(-c2ccc(Br)cc2OCCO[C@H]2C[C@@H](C(=O)O)C2)oc2c(Cl)cccc12" was tested on HBsAg in HBV-infected PHH; the reported pIC50 is 5.06

---

- RUN_DESCRIPTION: Human microsome stability assay
- Type: in vitro ADME
- CONDITION_DETAILS: human liver microsomes, 1 μM test compound, 0.5 mg/mL microsomal protein, 37° C., pH 7.4, 0-30 minutes
Below, each of the compounds is paired with its reported Clearance of Human microsome value.
Respond with the bare value in mL/min/kg.

1. O=C(O)[C@@H]1C[C@H](Oc2cc(Br)ccc2-c2cc(=O)c3cccc(Cl)c3o2)CN1S(=O)(=O)c1ccccc1: 6.15
2. COC(=O)C1CC(OCCOc2cc(Br)ccc2-c2cc(=O)c3cccc(Cl)c3o2)C1 (stereo not drawn) [Example C003a]: 6.15
3. O=C(O)COCCOc1cc(C(F)(F)F)ccc1-c1cc(=O)c2cccc(Cl)c2o1: 8.08
4. O=C(O)CCOc1cc(Br)ccc1-c1cc(=O)c2cccc(Cl)c2o1: 6.15
5. O=c1cc(-c2ccccc2OCCO[C@H]2C[C@@H](C(=O)O)C2)oc2c(Cl)cccc12: 6.15
6. O=c1cc(-c2cc3c(cc2OCCO[C@H]2C[C@H](C(=O)O)C2)OCO3)oc2c(Cl)cccc12: 7.72

// COc1cc(-c2cc(=O)c3cccc(Cl)c3o2)c(OC2CC(C(=O)O)C2)cc1Br (stereo not drawn) : Clearance of Human microsome value = 6.15

Lab note: O=C(O)C1CC(Oc2cc(OC(F)(F)F)ccc2-c2cc(=O)c3cccc(Cl)c3o2)C1 (stereo not drawn) gave Clearance of Human microsome of 6.15

Sure, the documented Clearance of Human microsome for "O=c1cc(-c2cc3c(cc2OCCO[C@H]2C[C@@H](C(=O)O)C2)OCO3)oc2c(Cl)cccc12" is 6.15

Query "COc1cc(OCCO[C@H]2C[C@@H](C(=O)O)C2)c(-c2cc(=O)c3c(O)ccc(Cl)c3o2)cc1OC" yields Clearance of Human microsome of 6.15

Lab book: Clearance of Human microsome of "O=C(O)COCCCOc1cc2c(cc1-c1cc(=O)c3cccc(Cl)c3o1)OCO2" noted as 6.15

The recorded Clearance of Human microsome for "O=C(O)[C@@H]1C[C@H](Oc2cc(C(F)(F)F)ccc2-c2cc(=O)c3cccc(Cl)c3o2)CN1S(=O)(=O)C1CC1" is 6.15

Measured Clearance of Human microsome, "O=c1cc(-c2ccc(F)cc2OCCO[C@H]2C[C@H](C(=O)O)C2)oc2c(Cl)cccc12" : 6.75

For record "CC(C)(COc1cc(OC(F)(F)F)ccc1-c1cc(=O)c2cccc(Cl)c2o1)C(=O)O" the listed Clearance of Human microsome is 8.78

Recorded result, "COc1cc(-c2cc(=O)c3cccc(Cl)c3o2)c(OCCCOCC(=O)O)cc1Br" , Clearance of Human microsome: 6.15

---

- Test system: HBsAg in HBV-infected PHH
- RUN_DESCRIPTION: Cryopreserved primary human hepatocytes (PHH) HBV infection assay, extracellular HBsAg (CLIA)
- Format: cell-based
- CONDITION_DETAILS: Hepatitis B virus, Hepatocyte, 216 h, read-out: HBsAg IC50, Cryopreserved PHH infected with HBV, 9 days post-compound treatment, extracellular HBsAg
The reader will find reported IC50 values listed item by item below.
Just the number please, in µM, no unit attached.

Known IC50 results, listed for orientation:
1) O=C(COc1cc(C(F)(F)F)ccc1-c1cc(=O)c2cccc(Cl)c2o1)N1CCOCC1: 2.8
2) COc1cc(-c2cc(=O)c3cccc(Cl)c3o2)c(OCCO[C@H]2C[C@@H](C(=O)O)C2)cc1Br: 7.56
3) COc1ccc(-c2cc(=O)c3cccc(Cl)c3o2)c(O[C@H]2C[C@@H](C(=O)O)C2)c1: 2.32
4) O=C(O)CCOc1cc2c(cc1-c1cc(=O)c3cccc(Cl)c3o1)OCO2: 0.931
5) Cc1ccc(S(=O)(=O)N[C@@H](COc2cc(C(F)(F)F)ccc2-c2cc(=O)c3cccc(Cl)c3o2)C(=O)O)cc1: 4.03
6) Cc1ccc(-c2cc(=O)c3cccc(Cl)c3o2)c(O[C@H]2C[C@@H](C(=O)NS(=O)(=O)C3CC3)C2)c1: 8.48
7) O=C(O)C1CC(Oc2cc(OC(F)(F)F)c(Br)cc2-c2cc(=O)c3cccc(Cl)c3o2)C1 (stereo not drawn): 2.24
8) O=C(O)COCCOc1cc(Br)ccc1-c1cc(=O)c2cccc(Cl)c2o1: 3.74
9) COc1cc(OCCO[C@H]2C[C@@H](C(=O)NS(=O)(=O)C3CC3)C2)c(-c2cc(=O)c3cccc(Cl)c3o2)cc1OC: 7.21
10) O=C(O)CCCOc1cc(OC(F)(F)F)ccc1-c1cc(=O)c2cccc(Cl)c2o1: 3.57

Consider the additional compound presented here.
Reported HBsAg in HBV-infected PHH IC50 for item "O=C(O)COCCCOc1cc(Br)ccc1-c1cc(=O)c2cccc(Cl)c2o1" was 9.38
